measurement-target: CDC7/DBF4 (Cell division cycle 7-related protein kinase/Activator of S phase kinase) (Homo sapiens)
experiment-summary: Inhibition of Cdc7/Dbf4 (unknown origin)-mediated MCM2 phosphorylation at Ser53 by protein A amplified luminescent proximity homogeneous assay
pIC50: −log10 of the molar value.
measurement-type: pIC50

Sample records with pIC50:
{"columns": ["smiles-input", "pIC50"],
 "data": [
  ["CC(C)(Nc1nnc(-c2c[nH]c3ncccc23)o1)c1ccccc1", 6.92],
  ["c1ccc(CNc2nnc(-c3c[nH]c4ncccc34)o2)cc1", 7.62],
  ["Fc1ccc(CNc2nnc(-c3c[nH]c4ncccc34)o2)cc1", 7.60],
  ["c1ccc([C@H](Nc2nnc(-c3c[nH]c4ncccc34)o2)C2CC2)cc1", 9.00],
  ["Fc1cccc(CNc2nnc(-c3c[nH]c4ncccc34)o2)c1", 8.00]
]}

P: Fc1ncccc1[C@H](Nc1nnc(-c2c[nH]c3ncccc23)o1)C1CC1
Q: c1cncc(CNc2nnc(-c3c[nH]c4ncccc34)o2)c1
Of P versus Q , which is the one with smaller reported pIC50? Use the label to indicate which entry you chose. Q

a: c1ccc(CNc2nnc(-c3ccc4cnccc4c3)o2)cc1
b: CC[C@@H](Nc1nnc(-c2c[nH]c3ncccc23)o1)c1ccccc1
c: Fc1cc2cc(-c3nnc(NCc4ccccc4)o3)ccc2cn1
Rank entries according to their pIC50, from the largest number down. List the labels, following the order given in the request. b, c, a
(b: 8.40, c: 8.00, a: 7.77)

* * *

measurement-target: CDK9/cyclin T1 (Homo sapiens, UniProt P50750)
Sequence (O60563 whole entry): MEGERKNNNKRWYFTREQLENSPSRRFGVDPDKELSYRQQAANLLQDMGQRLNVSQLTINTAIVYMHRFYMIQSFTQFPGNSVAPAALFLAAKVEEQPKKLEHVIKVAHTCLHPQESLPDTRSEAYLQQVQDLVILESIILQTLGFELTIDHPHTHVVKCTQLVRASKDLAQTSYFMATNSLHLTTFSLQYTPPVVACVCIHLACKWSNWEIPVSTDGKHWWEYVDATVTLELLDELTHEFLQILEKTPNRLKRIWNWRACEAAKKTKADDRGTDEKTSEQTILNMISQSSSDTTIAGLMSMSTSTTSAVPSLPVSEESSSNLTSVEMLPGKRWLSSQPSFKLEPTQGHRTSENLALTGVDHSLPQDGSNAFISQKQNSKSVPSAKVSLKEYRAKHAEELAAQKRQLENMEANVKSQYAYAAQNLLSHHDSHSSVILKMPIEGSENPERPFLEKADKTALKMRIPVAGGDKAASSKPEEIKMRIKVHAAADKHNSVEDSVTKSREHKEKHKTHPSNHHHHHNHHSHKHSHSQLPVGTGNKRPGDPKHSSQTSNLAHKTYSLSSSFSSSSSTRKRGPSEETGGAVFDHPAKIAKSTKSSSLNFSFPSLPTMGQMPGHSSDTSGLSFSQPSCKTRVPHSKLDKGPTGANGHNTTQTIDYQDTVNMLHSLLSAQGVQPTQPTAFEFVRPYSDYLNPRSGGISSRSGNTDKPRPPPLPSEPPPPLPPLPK
Sequence (P50750 whole entry): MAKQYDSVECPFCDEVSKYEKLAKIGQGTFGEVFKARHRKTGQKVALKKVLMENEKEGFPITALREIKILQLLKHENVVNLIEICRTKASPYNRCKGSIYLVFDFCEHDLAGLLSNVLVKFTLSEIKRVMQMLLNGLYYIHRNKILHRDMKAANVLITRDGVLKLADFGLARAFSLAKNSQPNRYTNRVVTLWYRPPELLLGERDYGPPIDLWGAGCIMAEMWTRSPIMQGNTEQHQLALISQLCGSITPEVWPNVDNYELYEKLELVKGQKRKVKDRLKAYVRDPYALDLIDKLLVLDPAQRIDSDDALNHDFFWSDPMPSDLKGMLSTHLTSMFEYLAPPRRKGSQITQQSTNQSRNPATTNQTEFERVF
experiment-summary: Inhibition of CDK9/cyclin T1 (unknown origin) using 4eBP1 ULight peptide as substrate by HTRF assay
pIC50: −log10 of the molar value.
measurement-type: pIC50

{"columns": ["smiles-input", "pIC50"],
 "data": [
  ["Fc1cnccc1[C@H](Nc1nnc(-c2c[nH]c3ncccc23)o1)C1CC1", 6.03]
]}

a: Fc1ccccc1[C@H](Nc1nnc(-c2c[nH]c3ncncc23)o1)C1CC1
b: Fc1ncccc1[C@H](Nc1nnc(-c2c[nH]c3ncccc23)o1)C1CC1
Of a versus b , which is the one with smaller reported pIC50? Use the label to indicate which entry you chose. a

I: Fc1cnc2[nH]cc(-c3nnc(N[C@@H](c4cccnc4F)C4CC4)o3)c2c1
II: Fc1ccc2c(-c3nnc(N[C@@H](c4cccnc4F)C4CC4)o3)c[nH]c2n1
III: Fc1ccccc1[C@H](Nc1nnc(-c2c[nH]c3ncccc23)o1)C1CC1
With regard to pIC50, arrange the entries in ascending order, please. List the labels, following the order given in the request. II, I, III

* * *

experiment-summary: Intrinsic clearance in rat liver microsomes
Type: ADME
setup-conditions: read-out: CLH
measurement-type: microsomal CLint (µL/min/mg)

Sample records with microsomal CLint:
{"columns": ["smiles-input", "microsomal CLint, µL/min/mg"],
 "data": [
  ["c1ccc(CNc2nnc(-c3c[nH]c4ncccc34)o2)cc1", 40],
  ["CC(C)[C@@H](Nc1nnc(-c2c[nH]c3ncccc23)o1)c1ccccc1", 51],
  ["Fc1ccc(CNc2nnc(-c3c[nH]c4ncccc34)o2)cc1", 58],
  ["Fc1ccc2c(-c3nnc(N[C@@H](c4cccnc4F)C4CC4)o3)c[nH]c2n1", 413],
  ["Fc1ccccc1[C@H](Nc1nnc(-c2c[nH]c3ncncc23)o1)C1CC1", 34]
]}

1: Fc1ncccc1[C@H](Nc1nnc(-c2c[nH]c3ncccc23)o1)C1CC1
2: Fc1ccccc1CNc1nnc(-c2c[nH]c3ncccc23)o1
Hi there! Just curious which has the higher microsomal CLint between 1 and 2 . Use the label to indicate which entry you chose. 1
(1: 80 µL/min/mg, 2: 46 µL/min/mg)

* * *

experiment-summary: Clearance in rat at 2 mg/kg, iv and 5 mg/kg, po
Assay type: ADME, organism-based
setup-conditions: in vivo
measurement-type: clearance (mL/min/kg)
Respond with the bare value in mL/min/kg.

Report clearance for Fc1ccccc1[C@H](Nc1nnc(-c2c[nH]c3ncccc23)o1)C1CC1 33.3

* * *

measurement-target: CDC7/DBF4 (Cell division cycle 7-related protein kinase/Activator of S phase kinase) (Homo sapiens, UniProt O00311)
Sequence (Q9UBU7 whole entry): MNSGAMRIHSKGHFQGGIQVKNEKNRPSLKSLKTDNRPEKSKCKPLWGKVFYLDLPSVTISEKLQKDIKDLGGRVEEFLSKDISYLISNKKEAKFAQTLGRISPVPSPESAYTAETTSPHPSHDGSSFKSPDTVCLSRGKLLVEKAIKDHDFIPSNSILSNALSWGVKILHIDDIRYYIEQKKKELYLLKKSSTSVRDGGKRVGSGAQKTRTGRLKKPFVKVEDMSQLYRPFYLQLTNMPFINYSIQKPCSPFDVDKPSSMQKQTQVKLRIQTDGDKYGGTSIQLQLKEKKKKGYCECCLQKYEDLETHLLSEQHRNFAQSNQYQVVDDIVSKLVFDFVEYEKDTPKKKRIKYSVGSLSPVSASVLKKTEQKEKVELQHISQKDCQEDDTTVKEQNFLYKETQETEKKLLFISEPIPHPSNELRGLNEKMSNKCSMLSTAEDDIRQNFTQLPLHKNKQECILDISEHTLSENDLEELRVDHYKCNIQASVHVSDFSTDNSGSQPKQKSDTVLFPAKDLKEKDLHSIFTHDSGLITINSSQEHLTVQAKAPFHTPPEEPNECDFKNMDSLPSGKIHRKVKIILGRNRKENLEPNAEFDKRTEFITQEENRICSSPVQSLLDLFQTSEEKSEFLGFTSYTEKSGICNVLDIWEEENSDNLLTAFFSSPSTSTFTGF
Sequence (O00311 whole entry): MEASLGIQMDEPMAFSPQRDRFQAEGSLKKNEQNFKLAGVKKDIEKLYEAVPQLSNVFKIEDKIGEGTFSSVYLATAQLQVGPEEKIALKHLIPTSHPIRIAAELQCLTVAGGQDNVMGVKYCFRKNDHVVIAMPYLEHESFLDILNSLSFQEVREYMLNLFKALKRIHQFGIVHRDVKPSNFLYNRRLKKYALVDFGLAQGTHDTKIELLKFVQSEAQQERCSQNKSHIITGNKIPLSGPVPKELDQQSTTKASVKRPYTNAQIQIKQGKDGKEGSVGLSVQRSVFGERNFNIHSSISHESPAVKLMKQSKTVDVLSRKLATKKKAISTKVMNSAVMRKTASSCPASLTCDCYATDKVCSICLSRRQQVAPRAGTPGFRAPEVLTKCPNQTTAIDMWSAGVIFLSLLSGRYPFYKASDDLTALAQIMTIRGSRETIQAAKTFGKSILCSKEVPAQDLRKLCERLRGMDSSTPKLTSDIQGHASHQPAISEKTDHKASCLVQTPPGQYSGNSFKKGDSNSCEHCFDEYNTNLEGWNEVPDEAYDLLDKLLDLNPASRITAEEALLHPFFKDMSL
experiment-summary: Inhibition of Cdc7/Dbf4 (unknown origin)-mediated MCM2 phosphorylation at Ser53 by protein A amplified luminescent proximity homogeneous assay
pIC50: −log10 of the molar value.
measurement-type: pIC50

Sample records with pIC50:
{"columns": ["smiles-input", "pIC50"],
 "data": [
  ["c1ccc(CNc2nnc(-c3nc4ccncc4s3)o2)cc1", 5.64],
  ["CC(C)[C@@H](Nc1nnc(-c2c[nH]c3ncccc23)o1)c1ccccc1", 8.70]
]}

P: Nc1n[nH]c2ccc(-c3nnc(NCc4ccccc4)o3)cc12
Q: O=c1[nH]c2ccc(-c3nnc(NCc4ccccc4)o3)cc2o1
R: c1ccc(CNc2nnc(-c3c[nH]c4ncccc34)o2)nc1
Rank entries according to their pIC50, from the largest number down. List the labels, following the order given in the request. P, R, Q
(P: 7.96, R: 6.77, Q: 6.23)

1: Fc1ccccc1[C@H](Nc1nnc(-c2c[nH]c3ncccc23)o1)C1CC1
2: c1cnc2[nH]cc(-c3nnc(NCc4ccncc4)o3)c2c1
3: Fc1ccc2c(-c3nnc(N[C@@H](c4cccnc4F)C4CC4)o3)c[nH]c2n1
4: O=C1Cc2cc(-c3nnc(NCc4ccccc4)o3)ccc2N1
With regard to pIC50, arrange the entries in ascending order, please. List the labels, following the order given in the request. 4, 2, 3, 1
(4: 6.11, 2: 6.96, 3: 8.41, 1: 9.07)

a: C[C@H](Nc1nnc(-c2c[nH]c3ncccc23)o1)c1ccccc1
b: c1ccc(CNc2nnc(-c3ccc4[nH]ncc4c3)o2)cc1
Of a versus b , which is the one with smaller reported pIC50? Use the label to indicate which entry you chose. a
(a: 7.46, b: 7.70)

* * *

experiment-summary: Volume of distribution at steady state in rat at 1 mg/kg, iv and 5 mg/kg, po
Assay type: ADME, organism-based
setup-conditions: in vivo, read-out: Vdss
measurement-type: Vd (L/kg)

P: Fc1cnc2[nH]cc(-c3nnc(N[C@@H](c4cccnc4F)C4CC4)o3)c2c1
Q: Fc1ncccc1[C@H](Nc1nnc(-c2c[nH]c3ncccc23)o1)C1CC1
Hi there! Just curious which has the higher Vd between P and Q . Use the label to indicate which entry you chose. Q

* * *

measurement-target: Cyclin-dependent kinase 2/cyclin E1 (Homo sapiens, UniProt P24941)
experiment-summary: Inhibition of CDK2/cyclin E (unknown origin) using ULight peptide as substrate by HTRF assay
measurement-type: IC50 (nM)

I: c1ccc(CNc2nnc(-c3ccc4[nH]ncc4c3)o2)cc1
II: O=c1[nH]c2ccc(-c3nnc(NCc4ccccc4)o3)cc2o1
III: Fc1ccccc1[C@H](Nc1nnc(-c2c[nH]c3ncncc23)o1)C1CC1
# rank_down: sort by IC50, max first List the labels, following the order given in the request. II, III, I
(II: 47000 nM, III: 750 nM, I: 170 nM)

* * *

experiment-summary: Volume of distribution at steady state in rat at 2 mg/kg, iv and 5 mg/kg, po
Type: ADME, organism-based
setup-conditions: in vivo, read-out: Vdss
measurement-type: Vd (L/kg)
Respond with the bare value in L/kg.

Report Vd for Fc1ccccc1[C@H](Nc1nnc(-c2c[nH]c3ncccc23)o1)C1CC1 5.3

* * *

System: Plasma
experiment-summary: Unbound plasma concentration in NCR/nude mouse xenografted with human HCT116 cells at 100 mg/kg, po measured at 16 hrs by LC-MS analysis
Assay type: ADME, organism-based, HCT-116
Parameters: dose 100 mg/kg, route oral
setup-conditions: in vivo
measurement-type: Cp(f) (nM)

Sample records with Cp(f):
{"columns": ["smiles-input", "unit-symbol", "observed-measurement"],
 "data": [
  ["Fc1cnccc1[C@H](Nc1nnc(-c2c[nH]c3ncccc23)o1)C1CC1", "nM", 450],
  ["Fc1ncccc1[C@H](Nc1nnc(-c2c[nH]c3ncccc23)o1)C1CC1", "nM", 70]
]}

I: Fc1ccccc1[C@H](Nc1nnc(-c2c[nH]c3ncccc23)o1)C1CC1
II: Fc1cnc2[nH]cc(-c3nnc(N[C@@H](c4cccnc4F)C4CC4)o3)c2c1
Hi there! Just curious which has the higher Cp(f) between I and II . Use the label to indicate which entry you chose. II
(II: 300 nM, I: 60 nM)

* * *

experiment-summary: Oral bioavailability rat in 2 mg/kg
Format: ADME, organism-based
setup-conditions: in vivo
measurement-type: bioavailability (%)
Respond with the bare value in %.

Report bioavailability for Fc1cnccc1[C@H](Nc1nnc(-c2c[nH]c3ncccc23)o1)C1CC1 14

* * *

experiment-summary: Clearance in rat at 1 mg/kg, iv and 5 mg/kg, po
Format: ADME, organism-based
setup-conditions: in vivo
measurement-type: clearance (mL/min/kg)

A: Fc1ncccc1[C@H](Nc1nnc(-c2c[nH]c3ncccc23)o1)C1CC1
B: Fc1cnc2[nH]cc(-c3nnc(N[C@@H](c4cccnc4F)C4CC4)o3)c2c1
Hi there! Just curious which has the higher clearance between A and B . Use the label to indicate which entry you chose. A
(A: 75 mL/min/kg, B: 28.3 mL/min/kg)
